REPORTED METRIC: melting point

Below, 4 compounds whose answers are already recorded.
- COMPOUND: "CCC1c2nc[nH]c2CCN1C(=S)NC(C)C (stereo unspecified)"
  MEASURED VALUE: "215 °C"
- COMPOUND: "C=CCN(CC=C)S(=O)(=O)c1ccc([N+](=O)[O-])cc1[N+](=O)[O-]"
  MEASURED VALUE: "105 to 106 °C"
- COMPOUND: "O=C(O)C(=O)c1ccc(OCC(=O)N2CCc3ccccc3C2)cc1"
  MEASURED VALUE: "218 to 220 °C"
- COMPOUND: "COCCS(=O)(=O)c1ccccc1S(N)(=O)=O"
  MEASURED VALUE: "120 to 123 °C"

**Q:** Consider the compound Brc1csc2ncnc(NCc3ccccn3)c12 and give its measured melting point.
**A:** 127 to 129 °C

**Q:** Consider the compound COc1ccc2c(c1)c(CO)nn2Cc1ccccc1 and give its measured melting point.
**A:** 97 to 98 °C

* * *

Entries and their measured melting point follow.

- COMPOUND: "O=C1CCN(c2cc3c(cc2-c2ccccc2F)NC(=O)CC(c2cccc(-n4ccnc4)c2)=N3)CC1"
  melting point: "230 °C"
- COMPOUND: "CCCCC(=O)Nc1cccc(-n2nc(CCCC)n(Cc3ccc(-c4ccccc4S(=O)(=O)NC(=O)c4ccccc4Cl)cc3)c2=O)c1"
  melting point: "102 to 105 °C"

**Q:** Consider the compound CCc1nn(C2CCCC2)c2cc(-c3cccs3)ccc12 and give its measured melting point.
**A:** 60 to 64 °C

**Q:** Consider the compound COc1ncccc1Oc1cc(-n2c(=O)cc(C(F)(F)F)n(C)c2=O)c(F)cc1Cl and give its measured melting point.
**A:** 180 °C

**Q:** Consider the compound Cc1cc(O)c(SCCc2ccccc2)c(=O)o1 and give its measured melting point.
**A:** 100 to 101 °C

* * *

Entries and their measured melting point follow.

Below, 5 compounds whose answers are already recorded.
- COMPOUND: "CC(C)(C)OC(=O)NCc1cccc2c1CN(C1CCC(=O)NC1=O)C2=O (stereo unspecified)"
  melting point: "239 to 241 °C"
- COMPOUND: "O=C(NC(Cc1ccc(OCc2ccccc2)cc1)C(=O)O)c1ccc2nc(-c3ccc(Cl)cc3)cn2c1 (stereo unspecified)"
  melting point: "278 to 280 °C"
- COMPOUND: "CCCCOCCCNC(=O)C(C)(C(C)C)C(C)C"
  melting point: "40 °C"
- COMPOUND: "CSC1NC(=O)N(c2ccc(Cl)c(Cl)c2)C(=O)N1N=C(C)C (stereo unspecified)"
  melting point: "181 to 182 °C"
- COMPOUND: "Cc1ncoc1C(C)(O)c1cccs1 (stereo unspecified)"
  melting point: "84 to 85 °C"

**Q:** Consider the compound COc1ccc(SC)c2c1CC(=O)CC2 and give its measured melting point.
**A:** 88 to 90 °C

* * *

REPORTED METRIC: melting point

Below, 4 compounds whose answers are already recorded.
- COMPOUND: "COc1cc(Nc2c(C#N)cnc3cc(-c4ccc(C5OCCCO5)o4)ccc23)c(Cl)cc1Cl"
  MEASURED VALUE: "224 to 229 °C"
- COMPOUND: "CC(=O)NC1CCc2cc3c(cc21)CCC3 (stereo not given)"
  MEASURED VALUE: "257 to 259 °C"
- COMPOUND: "N#CCCCc1ncc(Br)cc1[N+](=O)[O-]"
  MEASURED VALUE: "73 to 76 °C"
- COMPOUND: "CCOC(=O)c1nnc2n1CC(=O)N(C)c1ccc(Cl)cc1-2"
  MEASURED VALUE: "201 to 202 °C"

Turning now to a further compound:
**Q:** Consider the compound O=[N+]([O-])c1cnn2c1-c1ccccc1NC2c1ccccc1O (stereo not given) and give its measured melting point.
**A:** 235 to 237 °C

* * *

Entries and their measured melting point follow.

- MOLECULE: "CC(C)c1cccc(C(C)C)c1NC(=O)C1CCCC(Cc2ccccn2)(c2ccccc2)C1=O (stereo not given)"
  REPORTED METRIC: "melting point"
  MEASURED VALUE: "164 to 166 °C"
- MOLECULE: "CCc1c(Br)c2ccccn2c1C(=O)c1cc(Br)c(O)c(Br)c1"
  REPORTED METRIC: "melting point"
  MEASURED VALUE: "195 °C"
- MOLECULE: "Cc1nc(-c2cn(Cc3ccc(F)cc3)nn2)sc1C(=O)NCc1ccccc1"
  REPORTED METRIC: "melting point"
  MEASURED VALUE: "114 to 115 °C"
- MOLECULE: "CCC(=O)N(C)c1cccc(-c2ccc3nncn3n2)c1"
  REPORTED METRIC: "melting point"
  MEASURED VALUE: "146 to 150 °C"
- MOLECULE: "Cn1c(=O)c(-c2ccc(Cl)cc2Cl)cc2c3cc(-c4ccno4)ccc3[nH]c21"
  REPORTED METRIC: "melting point"
  MEASURED VALUE: "320 to 323 °C"
- MOLECULE: "CC(Cc1ccccc1)(C(=O)NO)S(=O)(=O)c1cccs1 (stereo not given)"
  REPORTED METRIC: "melting point"
  MEASURED VALUE: "116 to 117 °C"

**Q:** Consider the molecule N#CC(C(=O)CBr)c1cccc(Cl)c1 (stereo not given) and give its measured melting point.
**A:** 124 to 132 °C

**Q:** Consider the molecule CC(C)=NNc1cc2c(nn1)CCN(C(=O)c1ccc(Cl)cc1Cl)C2 and give its measured melting point.
**A:** 211 to 214 °C

**Q:** Consider the molecule OCc1ccc2c(c1)C=C(n1ccnc1)CC2 and give its measured melting point.
**A:** 88 to 91 °C

**Q:** Consider the molecule Cc1oncc1C(=O)Nc1ccc(NC(=O)CBr)cc1 and give its measured melting point.
**A:** 179 °C

* * *

Entries and their measured melting point follow.

**Q:** Consider the compound O=C(N[C@@H](CCCCNSc1ncccc1[N+](=O)[O-])C(=O)N[C@H](CCC(=O)N1c2ccccc2C[C@H]1C(=O)O)C(=O)O)OCc1ccc2c(c1)OCO2 and give its measured melting point.
**A:** 100 to 110 °C

**Q:** Consider the compound COC(=O)Nc1cccc(C(=O)C=CN(C)C)c1 and give its measured melting point.
**A:** 210 to 211 °C

**Q:** Consider the compound Oc1cccc(C=C2c3ccc(Cl)cc3CCc3cccnc32)c1 and give its measured melting point.
**A:** 221 °C

**Q:** Consider the compound CS(=O)(=O)ON=C(Cl)c1ccc(Cl)cc1 and give its measured melting point.
**A:** 80 to 82 °C

**Q:** Consider the compound O=[N+]([O-])c1ccccc1Nc1ccc(Nc2nccs2)cc1 and give its measured melting point.
**A:** 195 to 197 °C

**Q:** Consider the compound Cc1cccc(-c2nn(C)cc2-c2ccc(F)c(-c3ccc(S(C)(=O)=O)cc3)c2)n1 and give its measured melting point.
**A:** 66 to 67 °C

**Q:** Consider the compound CCN(CC)S(=O)(=O)c1ccccc1S(=O)(=O)NC(=O)Nc1nc(C)cc(OC)n1 and give its measured melting point.
**A:** 170 to 172 °C

**Q:** Consider the compound COc1ccc2c(c1)c(=O)oc(=O)n2-c1ccc(OCc2ccccc2)cc1 and give its measured melting point.
**A:** 155 °C

**Q:** Consider the compound Cc1c(OCC(F)(F)F)ccnc1CS(=O)c1nc2cc(N3CCCCC3)c(F)cc2[nH]1 (centres undefined) and give its measured melting point.
**A:** 99 to 100 °C

**Q:** Consider the compound COC(=O)CCCC#Cc1cc(Cl)ccc1NS(=O)(=O)c1ccc2sc(C)nc2c1 and give its measured melting point.
**A:** 68 to 72 °C

* * *

REPORTED METRIC: melting point

Below, 5 compounds whose answers are already recorded.
- COMPOUND: "O=C1CCCCN1CCCC(=O)N1CCC(C2c3ncc(Br)cc3CCc3cc(Cl)cc(Br)c32)CC1 (single isomer, unassigned; (+))"
  melting point: "101 to 102 °C"
- COMPOUND: "Cc1c(OCC#N)cc2c(c1Cl)C(=O)C1(CCCC1)C2=O"
  melting point: "137 to 139 °C"
- COMPOUND: "NCc1ccccc1N"
  melting point: "58 to 61 °C"
- COMPOUND: "COC(=O)C1CC(C#N)(c2ccc(Cl)cc2)CCC1=O (stereo unspecified)"
  melting point: "141 to 144 °C"
- COMPOUND: "COC(=O)C(C)(C)CCCCCOc1ccc(N2C(=O)c3ccccc3C2=O)cc1"
  melting point: "82 to 83 °C"

**Q:** Consider the compound CC(C)(C)OC(=O)N1CC=C(c2ccc3[nH]c(=O)[nH]c3c2)CC1 and give its measured melting point.
**A:** 244 to 245 °C

**Q:** Consider the compound CSc1ccc(CCCC(=O)O)cc1 and give its measured melting point.
**A:** 53 to 55 °C

**Q:** Consider the compound Cn1nc(N2c3ccccc3C[C@H]2C(=O)N2CCCC(C)(C)C2)ccc1=O and give its measured melting point.
**A:** 125 to 129 °C

**Q:** Consider the compound O=C(NNc1ccccc1Cl)c1ccccc1F and give its measured melting point.
**A:** 105 to 107 °C

**Q:** Consider the compound CCCN(C)C(=O)Nc1c(C(=O)c2ccccc2)[nH]c2cc(Cl)ccc12 and give its measured melting point.
**A:** 168 to 171 °C

**Q:** Consider the compound COCc1cc2cc(CN3CCOCC3)cc3c(=O)c(C(=O)NCc4ccc(Cl)cc4)cn1c23 and give its measured melting point.
**A:** 157 to 159 °C
